Sourced from patent US20150056209A1

- experimental.system: LRO4
- assay.name: competitive phage ELISA, coated LRO4; competitor MDA-LDL 50 µg/mL
Bridges are numbered along the chain shown (N, C = ends). Where no end group is shown, it is not given here.
property: B/Bo (inhibition of binding to LR04) (B/Bo)

1. ESWTNSWAMYFGGGGS (peptide, not shown: large carriers) [phage clone M2] : 0.2
2. ACNNYNMPLCGGGS (peptide, not shown: large carriers, disulfide 2-10; also: C-terminus fused to phage pIII) [phage clone Cb589] : 0.03
3. ACNNSKMRLCGGGS (peptide, not shown: large carriers, disulfide 2-10; also: C-terminus fused to phage pIII) [phage clone Ca2] : 0.12
